# EXPERIMENTAL PROTOCOL: Bioavailability in rat (dose 2 mg/kg i.v. and 10 mg/kg p.o.)
# Assay type: ADME, organism-based
# EXPERIMENTAL PARAMETERS: in vivo, po
READOUT TYPE: bioavailability (%)

structure=CCCc1c(OCCCCOc2ccc(-c3nnn[nH]3)cc2)ccc(C(C)=O)c1O result_number=63

A: CC(C)CC(=O)c1ccc(OCCCCOc2cccc(F)c2F)c(Br)c1O
B: Cc1c(OCCCCOc2ccc(-c3nn[nH]n3)cc2)ccc(C(=O)CC(C)C)c1O
Q) For the pair A and B , which entry has the numerically smaller recorded bioavailability? Refer to your chosen item by its label in the answer.
A) A

Entry source: ChEMBL document CHEMBL1138703
